Value source: PubChem BioAssay (NCI)

# System: 786-0 renal
# Test details: NCI-60 one-dose screen, 48 h (100 = growth as untreated, 0 = no growth, -100 = all killed)
# Details: 10 µM unless noted
The panel holds about 83,000 compounds, 20% with a hit somewhere; the sample as a whole holds those more often. Activity calls are given as the source filed them. Rule for the calls: active = growth percent below 10; inactive = the rest.
Catalogue of growth values

Please review the entries below; each comes with its answer.
Compound	growth
CC(=O)c1cccc(NS(=O)(=O)c2ccc(C)cc2)c1	89.5% (inactive)
C/C(=N\O)c1ccccn1	101% (inactive)
CC(C)Sc1ncnc2nc[nH]c12	101% (inactive)
Cc1ccc2[nH]c3ccccc3c2c1	93.9% (inactive)
O=C1NCC2CCCC1C2 (stereo unspecified)	99.5% (inactive)
CCCCCCCCCc1ccc(OC(C)=O)cc1	101% (inactive)
Nc1cc2ccccc2c(O)c1O	-32.2% (active)
N#C/C(=C\NC(=S)N=Nc1c(O)[nH]c2ccccc12)c1nc2ccccc2s1	94.8% (inactive)

Exercise: Requested read-out: growth. Entry: `CCCCCCCCCCCCCCCCCCSC(=N)N`
Key: 61.9% (inactive)

Exercise: Fill blank: measured growth of the compound `CCOC(=O)Nc1nccs1` is ____.
Key: 100% (inactive)

Exercise: Item `Cn1c(=O)[nH]c2ccccc2c1=O` has what recorded growth?
Key: 97.5% (inactive)

* * *

# System: OVCAR-3 ovarian
# Test details: NCI-60 one-dose screen, 48 h
# Details: 10 µM unless noted
About 83,000 compounds went through this panel and 20% of them were active in at least one assay; those are over-represented in the sample as a whole. Active and inactive are the calls of the source. The calls were made as follows: active = growth percent below 10; inactive = the rest.
Answer with one of the outcomes given here: y (active), n (inactive)

// known answers, use as guide
Compound	Label class
CCCCN(C(=O)CC)c1ccccc1	n
CCCCCC/C=C\CCCCCCCCCc1cc(O)cc(OC)c1O	n
CN(C)Cc1ccccn1	n

Exercise: Test call for this compound, please: CC(C)OCC(CCl)OC(=O)Nc1ccccc1 (stereo not drawn)
Key: n

Exercise: So what was the verdict on `CSc1cnc2ccccc2n1` in this test?
Key: n

Exercise: Kindly provide the recorded test outcome for the following compound: `Ic1cccs1`
Key: n

* * *

# Tested on: PC-3 prostate
# Test details: NCI-60 one-dose screen, 48 h
# Details: 10 µM unless noted
About 83,000 compounds went through this panel and 20% of them were active in at least one assay; those are over-represented in the sample as a whole. The source made the active and inactive calls. The calls were made as follows: active = growth percent below 10; inactive = the rest.
One label from this list, please: active, inactive

Worked examples, 5 compounds total:
Compound	Measured target	Label class
CCCCN(C(=O)CC)c1ccccc1	PC-3 prostate	inactive
CCN(Cc1ccc(Cl)c(Cl)c1)c1ccc2nc(N)nc(N)c2c1C	PC-3 prostate	active
CCCC(OC(C)=O)c1ccc2c(c1)OCO2 (stereo not given)	PC-3 prostate	inactive
COC1OC(C(COC(C)=O)OC(C)=O)C(OC(C)=O)C(OC(C)=O)C1OC(C)=O (stereo not given)	PC-3 prostate	inactive
CCN1CCCC(N2c3ccccc3Sc3ccccc32)C1 (stereo not given)	PC-3 prostate	inactive

Exercise: What classification did C=C1C(=O)C2CCC1C2 (stereo not given) end up with in this test?
Key: inactive

Exercise: Recorded test outcome, item COC1OC(C(O)C(O)CO)C(O)C(O)C1O (stereo not given)
Key: inactive

Exercise: Hello, I am checking results. What call was entered for `CCCCNc1ccc(-c2ccc(NCCCC)cc2)cc1` ?
Key: inactive

Exercise: // return assay outcome for `CCOC(=O)/C(O)=C(\C=N\C(=S)Nc1ccc(Cl)c(Cl)c1)C(=O)OCC`
Key: inactive

Exercise: Hello, I am checking results. What call was entered for `NC(CCl)=NCC12CC3CC(CC(C3)C1)C2` ?
Key: active

Exercise: What did this assay record as the result for `CC(C)c1ccc(C(=O)OCCCl)cc1` ?
Key: inactive

Exercise: Hi, do you know how `O=C(O)c1cc(I)ccc1O` came out in this test?
Key: inactive

Exercise: Per the records of this test, what outcome belongs to `NC(CO)(CO)c1ccccc1` ?
Key: inactive

Exercise: Record lookup: outcome of this test for NCC(O)C(O)C(O)C(O)CO (stereo not given) ?
Key: inactive

Exercise: How did this test come out for `CC(=O)c1cc(O)ccc1O` ?
Key: inactive

Exercise: Hi, do you know how `O=c1nc(Nc2cccc(Cl)c2)oc2cc(Cl)oc(=O)c12` came out in this test?
Key: inactive

Exercise: Which outcome was assigned to `COc1ccc(-c2csc(NC(=O)Nc3nc(-c4ccc(OC)cc4)cs3)n2)cc1` in this test?
Key: inactive

Exercise: Hello, I am checking results. What call was entered for `N#Cc1ccc2nc[nH]c2c1` ?
Key: inactive

Exercise: Hi, sorry to bother you, what did the test record for `C1=NCCc2ccccc21` ?
Key: inactive
